Data provenance is patent US20130281399A1.

- systemUnderTest: Brd4 bromodomain 1 (Homo sapiens)
- Construct: made in house; host or cells: E. coli BL21(DE3)
- experimentalProtocol: Inhibition of binding of tetra-acetylated histone H4 to Brd4 bromodomain 1 (TR-FRET)
- conditions: His-tagged Brd4 bromodomain 1 200 nM, tetra-acetylated histone H4 peptide 25-50 nM, 2 hours room temperature
readout: FRET activity (<50 uM)

smilesRecord: COc1cc(OC)c2c(=O)[nH]c(-c3ccc(N4CCN(C(=O)CC(F)(F)F)CC4)cc3)nc2c1
recordedMeasurement: Active
--
smilesRecord: COc1cc(OC)c2c(=O)[nH]c(-c3ccc(N4CCN(C(=O)c5ccccn5)CC4)cc3)nc2c1
recordedMeasurement: Active
--
smilesRecord: Cc1cc(-c2nc3cc(OC(C)C)cc(OC(C)C)c3c(=O)[nH]2)cc(C)c1OCCN1CCCC1
recordedMeasurement: Inactive
--
smilesRecord: COc1cc(OC)c2c(=O)[nH]c(-c3cc(C)c(OC[C@@H]4CCC(=O)N4)c(C)c3)nc2c1
recordedMeasurement: Active

[in] Give FRET activity (<50 uM) for COc1cc(OC)c2c(=O)[nH]c(-c3cc(C)c(OCCN4C(=O)c5ccccc5C4=O)c(C)c3)cc2c1 tested on Brd4 bromodomain 1 (Homo sapiens).
[out] Inactive

[in] Give FRET activity (<50 uM) for COc1cc(OC)c2c(=O)[nH]c(-c3ccc(N4CCN(C(=O)c5cccs5)CC4)cc3)nc2c1 tested on Brd4 bromodomain 1 (Homo sapiens).
[out] Active

[in] Give FRET activity (<50 uM) for COc1cc(OCCOCc2ccccc2)cc2nc(-c3cc(C)nc(C)c3)[nH]c(=O)c12 tested on Brd4 bromodomain 1 (Homo sapiens).
[out] Active

[in] Give FRET activity (<50 uM) for COc1cc(OC)c2c(=O)[nH]c(-c3ccc(N4CCC(NC(C)=O)CC4)cc3)nc2c1 tested on Brd4 bromodomain 1 (Homo sapiens).
[out] Active
